organism: Rattus norvegicus; assay: Open TG-GATES - Regimen: Single; type: toxicity, organism-based, Sprague-Dawley; design: regimen Single, gender Male, age 6 weeks; details: in vivo, po, 0 mg/kg, 24 h, tissue Plasma, route gavage, dose level Control
Below is a list of entries, each paired with its recorded gamma-GTP value.
Record the result as a number with its unit.

Field: example entries. Status: answers known.
| COMPOUND | DATA VALUE |
| --- | --- |
| Clc1ccccc1CN1CCc2sccc2C1 | 1 IU/L |
| CC(=O)Oc1ccccc1C(=O)O | 1.2 IU/L |
| CN(C)CCC=C1c2ccccc2CCc2ccccc21 | 0.6 IU/L |
| O=C(O)c1cn(C2CC2)c2cc(N3CCNCC3)c(F)cc2c1=O | 1.2 IU/L |
| O=C(O)c1cc(/N=N/c2ccc(S(=O)(=O)Nc3ccccn3)cc2)ccc1O | 1.2 IU/L |

Bench note: what gamma-GTP did `COc1cc2c(c3oc(=O)c4c(c13)CCC4=O)[C@@H]1C=CO[C@@H]1O2` show?
0.8 IU/L

Also check `COc1ccc(Cc2nccc3cc(OC)c(OC)cc23)cc1OC`
1.8 IU/L

What would you report for `NC(=O)N/N=C/c1ccc([N+](=O)[O-])o1` ?
1 IU/L

One more compound: NC(=O)N1c2ccccc2C=Cc2ccccc21 [CARBAMAZEPINE]
0.8 IU/L

Check CCc1cc(C(N)=S)ccn1 [ETHIONAMIDE] too.
1.6 IU/L

----------
Measured ALP, listed per entry.
species on record: Rattus norvegicus; experiment: Open TG-GATES - Regimen: Single; type: toxicity, organism-based, Sprague-Dawley; set-up: regimen Single, gender Male, age 6 weeks; details: in vivo, po, 300 mg/kg, 3 h, tissue Plasma, route gavage, dose level Middle
The reply should contain only the number, in IU/L.

# example entries with known answers
| COMPOUND | PARAMETER MEASURED | DATA VALUE |
| --- | --- | --- |
| O=C(O)c1cc(/N=N/c2ccc(S(=O)(=O)Nc3ccccn3)cc2)ccc1O [SULFASALAZINE] | ALP | 897.6 |
| CCc1cc(C(N)=S)ccn1 [ETHIONAMIDE] | ALP | 771 |
| C[C@H](CS)C(=O)N1CCC[C@H]1C(=O)O [CAPTOPRIL] | ALP | 845.8 |
| Clc1ccccc1CN1CCc2sccc2C1 [TICLOPIDINE] | ALP | 999 |

# evaluate next
I would be grateful if you could share the reported ALP for O=C(O)c1cn(C2CC2)c2cc(N3CCNCC3)c(F)cc2c1=O [CIPROFLOXACIN] .
905.6

----------
species on record: Rattus norvegicus; test: Open TG-GATES - Regimen: Single; type: toxicity, organism-based, Sprague-Dawley; set-up: regimen Single, gender Male, age 6 weeks; conditions: in vivo, po, 0 mg/kg, 9 h, tissue Blood, route gavage, dose level Control
Measured APTT, listed per entry for reference.
Hi! Could you send only the number? It should be in s, unit omitted.

Dear colleague, I am looking for the recorded APTT of the following compound: NC(=O)N1c2ccccc2C=Cc2ccccc21 [CARBAMAZEPINE]
22.5

Check `Cn1c(=O)c2[nH]cnc2n(C)c1=O.O` too.
22.9

Repeat with `O=C(O)c1cc(/N=N/c2ccc(S(=O)(=O)Nc3ccccn3)cc2)ccc1O`
18.9

Let us now turn to `C[C@H](CS)C(=O)N1CCC[C@H]1C(=O)O`
16.3

And then `Clc1ccccc1CN1CCc2sccc2C1` , what is it?
17.9

Also, `NC(=O)N/N=C/c1ccc([N+](=O)[O-])o1` please.
15.7

Next entry: `O=C(O)c1cn(C2CC2)c2cc(N3CCNCC3)c(F)cc2c1=O`
17

Entry CCc1cc(C(N)=S)ccn1 [ETHIONAMIDE] please
17.3

Then what about the compound `COc1ccc(Cc2nccc3cc(OC)c(OC)cc23)cc1OC` ?
22.9

----------
species: Rattus norvegicus; test: Open TG-GATES - Regimen: Daily Repeat; assay type: toxicity, organism-based, Sprague-Dawley; parameters: regimen Daily Repeat, gender Male, age 6 weeks; conditions: in vivo, po, 0 mg/kg, […], tissue Plasma, route gavage, dose level Control, time 7 day
PARAMETER MEASURED: Na (meq/L)
Reply numerically in meq/L, unit not repeated.

Answered cases to consult:
| COMPOUND | DATA VALUE |
| --- | --- |
| NC(=O)N1c2ccccc2C=Cc2ccccc21 [CARBAMAZEPINE] | 140.6 |
| Clc1ccccc1CN1CCc2sccc2C1 | 141.4 |
| Cn1c(=O)c2[nH]cnc2n(C)c1=O.O | 141.4 |
| COc1ccc(Cc2nccc3cc(OC)c(OC)cc23)cc1OC | 140.4 |
| CC(=O)Oc1ccccc1C(=O)O | 141 |

What value of Na has been recorded for this entry: `NC(=O)N/N=C/c1ccc([N+](=O)[O-])o1`
141.6

Further, for `COc1ccc2c(c1)c(CC(=O)O)c(C)n2C(=O)c1ccc(Cl)cc1` ?
139

Query `CCCC(CCC)C(=O)O` next
141

Likewise for `C[C@H](CS)C(=O)N1CCC[C@H]1C(=O)O` ?
141.4

Further, for CCc1cc(C(N)=S)ccn1 [ETHIONAMIDE] ?
140

Please do the same for CSc1ccc2c(c1)N(CCC1CCCCN1C)c1ccccc1S2 (stereo not given) as well.
141.6

Try the compound `CO[C@H]1/C=C/O[C@@]2(C)Oc3c(C)c(O)c4c(O)c(c(/C=N/N5CCN(C)CC5)c(O)c4c3C2=O)NC(=O)/C(C)=C\C=C\[C@H](C)[C@H](O)[C@@H](C)[C@@H](O)[C@@H](C)[C@H](OC(C)=O)[C@@H]1C`
140.6

----------
species: Rattus norvegicus; assay: Open TG-GATES - Regimen: Single; format: toxicity, organism-based, Sprague-Dawley; design: regimen Single, gender Male, age 6 weeks; details: in vivo, po, 100 mg/kg, 9 h, tissue Blood, route gavage, dose level Low
Here, each record is paired with measured PT data.
Report only the number, with the unit s understood.

Some compounds with known PT results, for comparison:
| COMPOUND | PARAMETER MEASURED | DATA VALUE |
| --- | --- | --- |
| O=C(O)c1cn(C2CC2)c2cc(N3CCNCC3)c(F)cc2c1=O | PT | 11.5 |
| Clc1ccccc1CN1CCc2sccc2C1 | PT | 12.7 |
| C[C@H](CS)C(=O)N1CCC[C@H]1C(=O)O | PT | 12.1 |
| O=C(O)c1cc(/N=N/c2ccc(S(=O)(=O)Nc3ccccn3)cc2)ccc1O | PT | 12.8 |

Field: next compound
Look up PT for this compound: CCc1cc(C(N)=S)ccn1 [ETHIONAMIDE]
14.1

----------
species on record: Rattus norvegicus; assay: Open TG-GATES - Regimen: Daily Repeat; format: toxicity, organism-based, Sprague-Dawley; parameters: regimen Daily Repeat, gender Male, age 6 weeks; settings: in vivo, po, 0 mg/kg, […], tissue Plasma, route gavage, dose level Control, time 28 day
PARAMETER MEASURED: ALT (IU/L)
Write the value in IU/L as a bare number.

// below: answered compounds
| COMPOUND SMILES | DATA VALUE |
| --- | --- |
| CN(C)CCC=C1c2ccccc2CCc2ccccc21 | 47.2 |
| NC(=O)N/N=C/c1ccc([N+](=O)[O-])o1 | 38 |
| O=C(O)c1cc(/N=N/c2ccc(S(=O)(=O)Nc3ccccn3)cc2)ccc1O | 49.2 |
| Cn1c(=O)c2[nH]cnc2n(C)c1=O.O | 38.6 |

// next item, ALT requested
Need ALT of `C[C@H](CS)C(=O)N1CCC[C@H]1C(=O)O` , thanks.
31.4

----------
species: Rattus norvegicus; experiment: Open TG-GATES - Regimen: Single; type: toxicity, organism-based, Sprague-Dawley; set-up: regimen Single, gender Male, age 6 weeks; settings: in vivo, po, 0 mg/kg, 9 h, tissue Blood, route gavage, dose level Control
PARAMETER MEASURED: Mono (%)
Note: unit % is implicit; provide only the numeric part.

The following compounds have reported results that may help.
| COMPOUND | UNIT NAME | Mono |
| --- | --- | --- |
| NC(=O)N1c2ccccc2C=Cc2ccccc21 [CARBAMAZEPINE] | % | 2.2 |
| CCc1cc(C(N)=S)ccn1 [ETHIONAMIDE] | % | 7 |
| NC(=O)N/N=C/c1ccc([N+](=O)[O-])o1 | % | 2.4 |

Please give the measured Mono for this compound: `CC(=O)Oc1ccccc1C(=O)O`
2.4

Lookup `Clc1ccccc1CN1CCc2sccc2C1`
2

# repeat for `O=C(O)c1cn(C2CC2)c2cc(N3CCNCC3)c(F)cc2c1=O`
6.8
